Origin of measurements: paper PMC10333884

I'd be grateful if you could share measured pKd for these entries.
# SYSTEM_UNDER_TEST: GABARAPL2 (Homo sapiens)
# Construct: GABARAPL2_ATG8__P60520_2_115; GST (cleaved yes); made in house; host or cells: Escherichia coli BL21-Gold(DE3)
# PROCEDURE_DETAILS: FP displacement assay, GABARAPL2
# Type: binding
# MEASUREMENT_SETUP: read-out: KD values ± SEM
Residues, ends and D or L forms follow the SMILES beside them.
Numbers only, as −log10 of the molar value.

CC(=O)N[C@@H](Cc1ccc(O)cc1)C(=O)N[C@@H](CCCCN)C(=O)N[C@@H](CCCCN)C(=O)N[C@@H](CCC(N)=O)C(=O)N[C@@H](CC(C)C)C(=O)N[C@@H](CCCCN)C(=O)N[C@@H](CCCNC(=N)N)C(=O)N[C@@H](Cc1ccccc1)C(=O)N[C@@H](CCC(=O)O)C(=O)N[C@H](C(=O)N[C@@H](CCC(=O)O)C(=O)N[C@@H](CCC(=O)O)C(=O)N[C@@H](Cc1ccccc1)C(=O)N[C@H](C(=O)N[C@@H](CC(C)C)C(=O)N[C@@H](CC(C)C)C(=O)O)C(C)C)[C@@H](C)O [ATG4C444–458 E] (Ac-YKKQLKRFETEEFVLL-OH) ... 5.74

Let's switch to this molecule now.
CC(=O)N[C@@H](C)C(=O)N[C@@H](CC(N)=O)C(=O)N[C@@H](CO)C(=O)N[C@@H](Cc1c[nH]c2ccccc12)C(=O)N[C@@H](CCC(N)=O)C(=O)N[C@@H](CC(C)C)C(=O)N[C@H](C(=O)N[C@@H](CCC(=O)O)C(=O)N[C@@H](CCC(=O)O)C(=O)N1CCC[C@H]1C(=O)N[C@@H](CCC(=O)O)C(=O)N[C@@H](CCCCN)C(=O)N[C@@H](CCCNC(=N)N)C(=O)N[C@@H](CCCCN)C(=O)N[C@@H](CCC(=O)O)C(=O)N[C@@H](CCC(=O)O)C(N)=O)C(C)C [DLGAP4_907–922 E] (Ac-ANSWQLVEEPEKRKEE-NH2) yielded pKd of 3.59

----------
# SYSTEM_UNDER_TEST: GABARAPL2 (Homo sapiens, UniProt P60520)
# Construct: GABARAPL2_ATG8__P60520_2_115; GST (cleaved yes); made in house; host or cells: Escherichia coli BL21-Gold(DE3)
# Sequence (P60520 2-115): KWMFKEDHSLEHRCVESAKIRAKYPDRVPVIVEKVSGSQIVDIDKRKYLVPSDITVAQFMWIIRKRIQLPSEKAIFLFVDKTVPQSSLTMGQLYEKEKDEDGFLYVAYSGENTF
# PROCEDURE_DETAILS: FP displacement assay, GABARAPL2
# Type: binding
# MEASUREMENT_SETUP: read-out: KD values ± SEM
Residues, ends and D or L forms follow the SMILES beside them.
QUANTITY: pKd
Answers are plain numbers, as −log10 of the molar value.

CC(=O)N[C@@H](CC(C)C)C(=O)N[C@@H](CCC(=O)O)C(=O)N[C@@H](CC(=O)O)C(=O)N[C@@H](CC(=O)O)C(=O)N[C@@H](CCC(=O)O)C(=O)N[C@@H](CCC(N)=O)C(=O)N[C@@H](Cc1ccccc1)C(=O)N[C@H](C(=O)N[C@@H](CO)C(=O)N[C@@H](CC(C)C)C(=O)N[C@@H](Cc1ccc(O)cc1)C(=O)NCC(=O)N[C@H](C(=O)N[C@@H](CCC(=O)O)C(=O)N[C@@H](CCC(=O)O)C(=O)N[C@@H](Cc1ccc(O)cc1)C(N)=O)[C@@H](C)O)C(C)C [TBK1_164–179 wt] ... 4.72
CC(=O)N[C@@H](Cc1ccc(O)cc1)C(=O)N[C@@H](CCCCN)C(=O)N[C@@H](CCCCN)C(=O)N[C@@H](CCC(N)=O)C(=O)N[C@@H](CC(C)C)C(=O)N[C@@H](CCCCN)C(=O)N[C@@H](CCCNC(=N)N)C(=O)N[C@@H](Cc1ccccc1)C(=O)N[C@@H](CO)C(=O)N[C@H](C(=O)N[C@@H](CCC(=O)O)C(=O)N[C@@H](CCC(=O)O)C(=O)N[C@@H](Cc1ccccc1)C(=O)N[C@H](C(=O)N[C@@H](CC(C)C)C(=O)N[C@@H](CC(C)C)C(=O)O)C(C)C)[C@@H](C)O [ATG4C444–458 wt] ... 6.10
CC(=O)N[C@@H](CC(C)C)C(=O)N[C@@H](CCC(=O)O)C(=O)N[C@@H](CC(=O)O)C(=O)N[C@@H](CC(=O)O)C(=O)N[C@@H](CCC(=O)O)C(=O)N[C@@H](CCC(N)=O)C(=O)N[C@@H](Cc1ccccc1)C(=O)N[C@H](C(=O)N[C@@H](COP(=O)(O)O)C(=O)N[C@@H](CC(C)C)C(=O)N[C@@H](Cc1ccc(O)cc1)C(=O)NCC(=O)N[C@H](C(=O)N[C@@H](CCC(=O)O)C(=O)N[C@@H](CCC(=O)O)C(=O)N[C@@H](Cc1ccc(O)cc1)C(N)=O)[C@@H](C)O)C(C)C [TBK1_164–179 pS] ... 5.55

Respectfully, I request pKd for each entry included below.
1. CC(=O)N[C@@H](Cc1ccc(O)cc1)C(=O)N[C@@H](CCCCN)C(=O)N[C@@H](CCCCN)C(=O)N[C@@H](CCC(N)=O)C(=O)N[C@@H](CC(C)C)C(=O)N[C@@H](CCCCN)C(=O)N[C@@H](CCCNC(=N)N)C(=O)N[C@@H](Cc1ccccc1)C(=O)N[C@@H](COP(=O)(O)O)C(=O)N[C@H](C(=O)N[C@@H](CCC(=O)O)C(=O)N[C@@H](CCC(=O)O)C(=O)N[C@@H](Cc1ccccc1)C(=O)N[C@H](C(=O)N[C@@H](CC(C)C)C(=O)N[C@@H](CC(C)C)C(=O)O)C(C)C)[C@@H](C)O [ATG4C444–458 pS]
2. CC(=O)N[C@@H](C)C(=O)N[C@@H](CC(N)=O)C(=O)N[C@@H](CO)C(=O)N[C@@H](Cc1c[nH]c2ccccc12)C(=O)N[C@@H](CCC(N)=O)C(=O)N[C@@H](CC(C)C)C(=O)N[C@H](C(=O)N[C@@H](CCC(=O)O)C(=O)N[C@H](C(=O)N1CCC[C@H]1C(=O)N[C@@H](CCC(=O)O)C(=O)N[C@@H](CCCCN)C(=O)N[C@@H](CCCNC(=N)N)C(=O)N[C@@H](CCCCN)C(=O)N[C@@H](CCC(=O)O)C(=O)N[C@@H](CCC(=O)O)C(N)=O)[C@@H](C)O)C(C)C [DLGAP4_907–922 wt] (Ac-ANSWQLVETPEKRKEE-NH2)

Response:
1. 7.00
2. 3.76
